Reported values of EC50 for individual entries
Target: human GPR119 (Homo sapiens, UniProt Q8TDV5)
Sequence (Q8TDV5 whole entry): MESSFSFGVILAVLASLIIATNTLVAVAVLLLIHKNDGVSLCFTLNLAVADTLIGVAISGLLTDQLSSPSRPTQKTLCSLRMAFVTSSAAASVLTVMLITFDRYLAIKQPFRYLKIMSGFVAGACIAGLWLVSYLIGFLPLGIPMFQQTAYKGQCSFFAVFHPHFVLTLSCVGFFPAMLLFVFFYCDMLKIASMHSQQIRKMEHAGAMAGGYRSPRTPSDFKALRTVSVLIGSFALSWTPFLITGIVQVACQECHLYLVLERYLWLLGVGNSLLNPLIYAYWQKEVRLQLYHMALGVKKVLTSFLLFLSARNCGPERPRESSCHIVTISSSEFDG
Test: Measurement of GPR119 signaling using LANCE 384-well cAMP kit (LCMP assay)
Conditions: HEK293 cells stably transfected with human GPR119
Description: Measurement of GPR119 Signaling Using LANCE 384-Well cAMP Kit (LCMP Assay) Human embryonic kidney (HEK) 293 cell lines stably transfected with human GPR119 were maintained in DMEM media containing FBS, penicillin-streptomycin, HEPES, and hygromycin. […] Fluorescence at 665 nm was measured using a PHERAstar instrument. Basal activity was determined using a DMSO control and maximum response was defined as cAMP stimulation produced by an internal agonist control. […]
property: EC50 (nM)

1. CC(C)c1noc(N2CCC([C@H]3C[C@@H]3CCOc3cc(F)cc(F)c3CC(=O)N(C)C)CC2)n1 :: 20
2. CS(=O)(=O)c1ccc(OCC[C@@H]2C[C@H]2C2CCN(c3ncc(Cl)cn3)CC2)cc1F :: 8.3
3. CCc1cnc(N2CCC([C@@H]3C[C@H]3CCOc3cc(F)cc(F)c3CC(=O)N3CCC3)CC2)nc1 :: 17
4. CC(C)c1noc(N2CCC([C@@H]3C[C@H]3CCOc3cc(F)c(CC(=O)N4CCC4)c(F)c3)CC2)n1 :: 0.51
5. CC1(OC(=O)N2CCC([C@@H]3C[C@H]3CCOc3cc(F)c(CC(=O)N4CCC4)c(F)c3)CC2)CC1 :: 2
6. COCc1cnc(N2CCC([C@@H]3C[C@H]3CCOc3ccc(CC(=O)N(C)C)c(F)c3)CC2)nc1 :: 9.6
7. CS(=O)(=O)c1ccc(OCC[C@H]2C[C@@H]2C2CCN(c3ncc(Cl)cn3)CC2)c(F)c1 :: 23
8. CCS(=O)(=O)c1ccc(OCC[C@H]2C[C@@H]2C2CCN(c3nc(C(C)C)no3)CC2)c(F)c1 :: 13
9. CC(C)c1noc(N2CCC([C@@H]3C[C@H]3CCOc3ccc(-n4cnnn4)cc3F)CC2)n1 :: 6.2
10. CN(C)C(=O)Cc1c(F)cc(OCC[C@@H]2C[C@H]2C2CCN(C(=O)OC3(C)CC3)CC2)cc1F :: 2.1
11. O=C(Cc1ccc(OCC[C@H]2C[C@@H]2C2CCN(c3ncc(Cl)cn3)CC2)c(F)c1)N1CCC1 :: 4.6
12. CC1(OC(=O)N2CCC([C@H]3C[C@@H]3COCc3ccc(S(C)(=O)=O)cc3F)CC2)CC1 :: 8.8
13. CCc1cnc(N2CCC([C@@H]3C[C@H]3CCOc3ccc(S(C)(=O)=O)c(F)c3)CC2)nc1 :: 16
14. COCc1noc(N2CCC([C@@H]3C[C@H]3CCOc3cc(F)c(CC(=O)N4CCC4)c(F)c3)CC2)n1 :: 5.2
15. CS(=O)(=O)c1ccc(OCC[C@@H]2C[C@H]2C2CCN(c3ncc(Cl)cn3)CC2)c(F)c1 :: 17
16. CC(C)c1noc(N2CCC([C@H]3C[C@@H]3CCOc3cc(F)c(CC(=O)N(C)C)c(F)c3)CC2)n1 :: 0.67
17. COCc1cnc(N2CCC([C@H]3C[C@@H]3COCc3ccc(S(C)(=O)=O)cc3F)CC2)nc1 :: 7.1
18. CC1(OC(=O)N2CCC([C@@H]3C[C@H]3CCOc3ccc(CC(=O)N4CCC4)cc3F)CC2)CC1 :: 24
19. CCc1cnc(N2CCC([C@H]3C[C@@H]3CCOc3ccc(S(C)(=O)=O)cc3F)CC2)nc1 :: 8.8
20. CC1(OC(=O)N2CCC([C@@H]3C[C@H]3CCOc3ccc(-n4cnnn4)c(F)c3)CC2)CC1 :: 15
21. CCc1cnc(N2CCC([C@@H]3C[C@H]3CCOc3cc(F)c(CC(=O)N4CCC4)c(F)c3)CC2)nc1 :: 0.35
22. CC1(OC(=O)N2CCC([C@H]3C[C@@H]3CCOc3ccc(-n4cnnn4)c(F)c3)CC2)CC1 :: 14
23. CCc1cnc(N2CCC([C@H]3C[C@@H]3CCOc3ccc(CC(=O)N4CCC4)cc3F)CC2)nc1 :: 2.9
24. CC(C)c1noc(N2CCC([C@H]3C[C@@H]3CCOc3ccc(S(C)(=O)=O)cn3)CC2)n1 :: 18
25. CC(C)c1noc(N2CCC([C@@H]3C[C@H]3CCOc3ccc(CC(=O)N4CCC4)cc3F)CC2)n1 :: 6.8
26. CCc1cnc(N2CCC([C@H]3C[C@@H]3CCOc3cc(F)c(CC(=O)N(C)C)c(F)c3)CC2)nc1 :: 0.34
27. Fc1cc(OCC[C@H]2C[C@@H]2C2CCN(c3ncc(Cl)cn3)CC2)ccc1-n1cnnn1 :: 6.8
28. CC(C)c1noc(N2CCC([C@@H]3C[C@H]3CCOc3ccc(N4CCNC4=O)cc3F)CC2)n1 :: 18
29. O=C(Cc1ccc(OCC[C@@H]2C[C@H]2C2CCN(c3ncc(Cl)cn3)CC2)cc1F)N1CCC1 :: 1.8
30. COCc1noc(N2CCC([C@@H]3C[C@H]3CCOc3cc(F)c(CC(=O)N(C)C)c(F)c3)CC2)n1 :: 6.7
